// provenance: patent US5468734A

Exercise: state measured inhibition at 2000 µg/mL for each of the molecules provided.
Molecular target: sucrase (carbohydrase derived from rabbit small intestine mucous membrane) (Oryctolagus cuniculus)
Construct: suspended again in a 10 mM potassium phosphate buffer (pH: 7.0), thereby obtaining a crude enzyme suspension; from tissue; host or cells: rabbit small intestine (title: mucous membrane), homogenate, 60,000×g precipitate
Test: Action to inhibit the hydrolytic activity of homogenate prepared from rabbit small intestine mucous membrane: sucrase inhibition
Assay type: biochemical
Conditions: 0.25 h; 200 mg/dl; substrate sucrose 20 mM; pH 6.8, 37° C., 15 minutes; read-out: Sucrase inhibition rate
Description: (Action to inhibit the hydrolytic activity of homogenate prepared from rabbit small intestine mucous membrane to carbohydrate) A native kind of white rabbits (weight: 3.0-3.5 kg) were sacrificed by exsanguination to take out their small intestines. After freezing and thawing the small intestines thus taken out, they were homogenized in a 5 mM EDTA buffer (pH: 7.0) and subjected to centrifugation for 60 minutes at 60,000×g. […]
Enter your answer as a number in %; do not include the unit.

input: // inhibition at 2000 µg/mL lookup, key: O=C(CO)[C@H](O)[C@H](O)CO [D-Ribulose, D-ribulose]
output: 21.7

input: Thanks! And O=C(CO)[C@@H](O)[C@H](O)[C@@H](O)CO [L-Sorbose, L-sorbose, reference compound] ?
output: 5.1

input: Thanks! And OC1OC[C@@H](O[C@@H]2OC[C@@H](O[C@@H]3OC[C@@H](O[C@@H]4OC[C@@H](O[C@@H]5OC[C@@H](O[C@@H]6OC[C@@H](O)[C@H](O)[C@H]6O)[C@H](O)[C@H]5O)[C@H](O)[C@H]4O)[C@H](O)[C@H]3O)[C@H](O)[C@H]2O)[C@H](O)[C@H]1O (stereo partly shown) [reference compound] ?
output: -7.9

input: Thanks! And O=C[C@H](O)[C@H](O)[C@H](O)CO [D-Ribose, D-ribose] ?
output: 33.4

---

Exercise: state measured Maltase inhibition rate for each of the compounds provided.
Test system: maltase (carbohydrase derived from rabbit small intestine mucous membrane)
Experiment: Action to inhibit the hydrolytic activity of homogenate prepared from rabbit small intestine mucous membrane: maltase inhibition
Format: biochemical
Conditions: 200 mg/dl; substrate maltose 20 mM; pH 6.8, 37° C., 15 minutes
Enter your answer as a number in %; do not include the unit.

input: // Maltase inhibition rate lookup, key: O=C(CO)[C@H](O)[C@@H](O)CO [L-Xylulose, L-xylulose, reference compound]
output: 6.4

input: Thanks! And O=C[C@H](O)[C@H](O)[C@@H](O)CO [L-Lyxose, L-lyxose, reference compound] ?
output: 10.0

input: Thanks! And OC1OC[C@@H](O[C@@H]2OC[C@@H](O)[C@H](O)[C@H]2O)[C@H](O)[C@H]1O (stereo partly shown) [reference compound] ?
output: 5.5

input: Thanks! And OC[C@H]1O[C@@H](OC[C@H]2OC(O)[C@H](O)[C@@H](O)[C@@H]2O)[C@H](O)[C@@H](O)[C@@H]1O (stereo partly shown) [Gentiobiose, reference compound] ?
output: 1.9

input: Thanks! And OC[C@H]1O[C@@H](O[C@H]2[C@H](O)[C@@H](O)C(O)O[C@@H]2CO)[C@H](O)[C@@H](O)[C@@H]1O (stereo partly shown) [Cellobiose, reference compound] ?
output: 2.8

input: Thanks! And O=CC[C@@H](O)[C@@H](O)[C@H](O)CO [2-Deoxy-D-galactose, 2-deoxy-D-galactose] ?
output: 32.8

input: Thanks! And O=C(CO)[C@@H](O)[C@H](O)CO [D-Xylulose, D-xylulose] ?
output: 11.9

input: Thanks! And OC[C@H]1O[C@@H](O[C@H]2[C@H](O)[C@H](O)[C@H](O[C@H]3[C@H](O)[C@H](O)[C@H](O[C@H]4[C@H](O)[C@H](O)[C@H](O[C@H]5[C@H](O)[C@H](O)C(O)O[C@@H]5CO)O[C@@H]4CO)O[C@@H]3CO)O[C@@H]2CO)[C@@H](O)[C@@H](O)[C@@H]1O (stereo partly shown) [reference compound] ?
output: 3.5

input: Thanks! And O=C[C@@H](O)[C@H](O)[C@@H](O)CO [L-Xylose, L-xylose] ?
output: 19.4

input: Thanks! And C[C@@H](O)[C@H](O)[C@H](O)[C@@H](O)C=O [D-Fucose, D-fucose, reference compound] ?
output: 4.1

input: Thanks! And O=C[C@@H](O)[C@@H](O)[C@@H](O)[C@H](O)CO [D-Talose, D-talose, reference compound] ?
output: 5.3

input: Thanks! And O=C[C@@H](O)[C@@H](O)[C@H](O)CO [D-Lyxose, D-lyxose] ?
output: 22.3

input: Thanks! And OC1OC[C@@H](O[C@@H]2OC[C@@H](O[C@@H]3OC[C@@H](O[C@@H]4OC[C@@H](O)[C@H](O)[C@H]4O)[C@H](O)[C@H]3O)[C@H](O)[C@H]2O)[C@H](O)[C@H]1O (stereo partly shown) [reference compound] ?
output: 2.0

---

Tested on: maltase (carbohydrase derived from rabbit small intestine mucous membrane)
Assay: Action to inhibit the hydrolytic activity of homogenate prepared from rabbit small intestine mucous membrane: maltase inhibition
Assay type: biochemical
Details: 50 mg/dl; substrate maltose 20 mM; pH 6.8, 37° C., 15 minutes
OBSERVED_PROPERTY: Maltase inhibition rate (%)
Enter your answer as a number in %; do not include the unit.

input: // Maltase inhibition rate lookup, key: "O=C(CO)[C@@H](O)[C@@H](O)[C@H](O)CO"
output: 17.7

input: Thanks! And O=C[C@H](O)[C@@H](O)[C@@H](O)[C@H](O)CO [D-Galactose, D-galactose, reference compound] ?
output: -0.8

input: Thanks! And "C[C@H](O)[C@@H](O)[C@@H](O)[C@H](O)C=O" ?
output: 18.4

input: Thanks! And "O=CC[C@@H](O)[C@@H](O)[C@H](O)CO" ?
output: 13.4

input: Thanks! And "O=C[C@H](O)[C@@H](O)[C@@H](O)CO" ?
output: 35.8

input: Thanks! And "O=C[C@H](O)[C@H](O)[C@H](O)CO" ?
output: 18.4

input: Thanks! And "O=C[C@H](O)[C@@H](O)[C@H](O)CO" ?
output: 36.4

input: Thanks! And O=C[C@@H](O)[C@@H](O)[C@H](O)[C@H](O)CO [D-Mannose, D-mannose, reference compound] ?
output: 3.2

---

Biological target: sucrase (carbohydrase derived from rabbit small intestine mucous membrane) (Oryctolagus cuniculus)
Construct: suspended again in a 10 mM potassium phosphate buffer (pH: 7.0), thereby obtaining a crude enzyme suspension; from tissue; host or cells: rabbit small intestine (title: mucous membrane), homogenate, 60,000×g precipitate
Test: Action to inhibit the hydrolytic activity of homogenate prepared from rabbit small intestine mucous membrane: sucrase inhibition
Type: biochemical
Conditions: 0.25 h; 25 mg/dl; substrate sucrose 20 mM; pH 6.8, 37° C., 15 minutes; read-out: Sucrase inhibition rate
Criterion: inhibition at 250 µg/mL meeting or surpassing 10%. Met: yes. Not met: no.

input: Decide: is the reported value of inhibition at 250 µg/mL for O=C(CO)[C@@H](O)[C@@H](O)[C@H](O)CO [D-Tagatose, D-tagatose] equal to or greater than 10%?
output: no

input: Thanks! And O=C[C@H](O)[C@@H](O)[C@@H](O)CO [L-Arabinose, L-arabinose] ?
output: yes

input: Thanks! And O=CC[C@@H](O)[C@@H](O)[C@H](O)CO [2-Deoxy-D-galactose, 2-deoxy-D-galactose] ?
output: yes

input: Thanks! And C[C@H](O)[C@@H](O)[C@@H](O)[C@H](O)C=O [L-Fucose, L-fucose] ?
output: yes

input: Thanks! And O=C[C@H](O)[C@H](O)[C@H](O)CO [D-Ribose, D-ribose] ?
output: yes

input: Thanks! And O=C[C@H](O)[C@@H](O)[C@H](O)CO [D-Xylose, D-xylose] ?
output: yes

---

Exercise: state measured inhibition at 1000 µg/mL for each of the compounds provided.
Target: sucrase (carbohydrase derived from rabbit small intestine mucous membrane) (Oryctolagus cuniculus, UniProt P07768)
Construct: suspended again in a 10 mM potassium phosphate buffer (pH: 7.0), thereby obtaining a crude enzyme suspension; from tissue; host or cells: rabbit small intestine (title: mucous membrane), homogenate, 60,000×g precipitate
Sequence (P07768 1008-1827 limits assumed): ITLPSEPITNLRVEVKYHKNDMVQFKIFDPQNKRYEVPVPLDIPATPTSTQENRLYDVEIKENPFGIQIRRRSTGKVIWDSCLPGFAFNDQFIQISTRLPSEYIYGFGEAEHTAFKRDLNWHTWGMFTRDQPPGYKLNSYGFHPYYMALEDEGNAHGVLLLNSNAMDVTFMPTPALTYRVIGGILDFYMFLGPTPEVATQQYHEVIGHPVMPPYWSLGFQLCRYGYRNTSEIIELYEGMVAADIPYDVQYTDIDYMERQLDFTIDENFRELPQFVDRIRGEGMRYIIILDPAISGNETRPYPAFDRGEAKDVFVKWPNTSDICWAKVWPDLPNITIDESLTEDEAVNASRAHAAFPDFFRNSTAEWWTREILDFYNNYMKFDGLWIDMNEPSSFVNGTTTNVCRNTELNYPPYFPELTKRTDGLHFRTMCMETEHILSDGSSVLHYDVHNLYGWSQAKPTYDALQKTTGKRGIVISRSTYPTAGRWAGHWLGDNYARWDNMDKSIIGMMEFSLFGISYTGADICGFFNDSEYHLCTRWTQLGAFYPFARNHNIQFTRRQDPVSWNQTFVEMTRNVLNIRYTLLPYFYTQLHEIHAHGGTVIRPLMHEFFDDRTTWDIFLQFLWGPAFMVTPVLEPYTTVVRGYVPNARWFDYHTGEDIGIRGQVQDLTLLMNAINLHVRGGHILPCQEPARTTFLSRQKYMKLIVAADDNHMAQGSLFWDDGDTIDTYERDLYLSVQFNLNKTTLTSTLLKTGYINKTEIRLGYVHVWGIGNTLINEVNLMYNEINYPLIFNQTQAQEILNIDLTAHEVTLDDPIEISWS
Sequence (P07768 2-1007 partner limits assumed): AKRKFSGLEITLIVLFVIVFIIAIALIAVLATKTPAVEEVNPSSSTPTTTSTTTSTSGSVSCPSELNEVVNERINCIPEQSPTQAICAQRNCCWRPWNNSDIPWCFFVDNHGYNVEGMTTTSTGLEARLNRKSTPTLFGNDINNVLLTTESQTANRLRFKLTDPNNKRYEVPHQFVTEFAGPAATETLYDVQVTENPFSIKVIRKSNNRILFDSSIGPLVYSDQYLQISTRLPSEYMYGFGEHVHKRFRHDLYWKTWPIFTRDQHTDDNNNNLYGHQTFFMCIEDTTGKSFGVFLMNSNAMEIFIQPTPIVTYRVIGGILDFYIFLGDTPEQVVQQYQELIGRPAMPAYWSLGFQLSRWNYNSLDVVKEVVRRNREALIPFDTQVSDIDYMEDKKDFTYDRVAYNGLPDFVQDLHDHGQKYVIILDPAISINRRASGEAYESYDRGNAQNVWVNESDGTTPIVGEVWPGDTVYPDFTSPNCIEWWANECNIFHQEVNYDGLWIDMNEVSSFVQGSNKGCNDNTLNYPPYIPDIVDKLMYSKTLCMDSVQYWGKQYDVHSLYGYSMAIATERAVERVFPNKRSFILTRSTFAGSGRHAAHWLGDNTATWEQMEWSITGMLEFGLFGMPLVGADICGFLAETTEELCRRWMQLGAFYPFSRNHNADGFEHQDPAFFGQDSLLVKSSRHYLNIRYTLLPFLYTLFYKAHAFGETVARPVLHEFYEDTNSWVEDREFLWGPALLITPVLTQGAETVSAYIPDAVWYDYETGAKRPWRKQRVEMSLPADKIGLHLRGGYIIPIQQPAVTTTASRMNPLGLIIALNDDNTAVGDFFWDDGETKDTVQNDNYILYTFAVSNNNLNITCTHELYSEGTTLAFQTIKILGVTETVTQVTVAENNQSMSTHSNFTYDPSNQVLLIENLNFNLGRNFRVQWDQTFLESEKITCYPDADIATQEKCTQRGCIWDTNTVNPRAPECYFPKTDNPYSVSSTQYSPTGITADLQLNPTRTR
Assay: Action to inhibit the hydrolytic activity of homogenate prepared from rabbit small intestine mucous membrane: sucrase inhibition
Format: biochemical
Details: 0.25 h; 100 mg/dl; substrate sucrose 20 mM; pH 6.8, 37° C., 15 minutes; read-out: Sucrase inhibition rate
Enter your answer as a number in %; do not include the unit.

input: // inhibition at 1000 µg/mL lookup, key: C[C@H](O)[C@@H](O)[C@@H](O)[C@H](O)C=O [L-Fucose, L-fucose]
output: 32.8

input: Thanks! And O=C[C@H](O)[C@@H](O)[C@@H](O)CO [L-Arabinose, L-arabinose] ?
output: 52

input: Thanks! And O=C(CO)[C@@H](O)[C@@H](O)[C@H](O)CO [D-Tagatose, D-tagatose] ?
output: 30

input: Thanks! And O=C[C@@H](O)[C@H](O)[C@H](O)CO [D-Arabinose, D-arabinose, reference compound] ?
output: 6.8

input: Thanks! And O=CC[C@@H](O)[C@@H](O)[C@H](O)CO [2-Deoxy-D-galactose, 2-deoxy-D-galactose] ?
output: 21.6

input: Thanks! And O=C[C@H](O)[C@@H](O)[C@H](O)CO [D-Xylose, D-xylose] ?
output: 49.5

input: Thanks! And O=C[C@H](O)[C@H](O)[C@H](O)CO [D-Ribose, D-ribose] ?
output: 34

input: Thanks! And O=C[C@@H](O)[C@H](O)[C@@H](O)CO [L-Xylose, L-xylose] ?
output: 11.9
